- SYSTEM_UNDER_TEST: delta opioid receptor (Rattus norvegicus)
- Construct: from tissue; host or cells: forebrain of male Wistar rats (particulate membrane preparation)
- Sequence (P33533 whole entry): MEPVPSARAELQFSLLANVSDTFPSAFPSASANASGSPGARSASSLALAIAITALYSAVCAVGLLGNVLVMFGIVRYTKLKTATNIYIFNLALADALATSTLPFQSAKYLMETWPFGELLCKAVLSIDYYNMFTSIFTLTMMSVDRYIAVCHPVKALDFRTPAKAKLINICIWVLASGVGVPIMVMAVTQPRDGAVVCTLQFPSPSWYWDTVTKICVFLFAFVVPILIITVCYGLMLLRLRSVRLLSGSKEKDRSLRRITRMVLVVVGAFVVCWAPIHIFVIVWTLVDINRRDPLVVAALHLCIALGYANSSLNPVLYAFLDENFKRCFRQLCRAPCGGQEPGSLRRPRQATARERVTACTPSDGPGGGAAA
- TEST: Rat Brain Delta Opioid Receptor Binding Assay
- PROTOCOL_CONDITIONS: rat forebrain membranes; [3H]DPDPE or [3H]naltrindole, 25° C., 2.5 h; read-out: delta (Ki)
- Procedure: Procedure: Male, Wistar rats (150-250 g, VAF, Charles River, Kingston, N.Y.) were killed by CO2, and their brains were removed and placed immediately in ice cold Tris HCl buffer (50 mM, pH 7.4). […] To each sample area 2×50 μL of Betaplate Scint scintillation fluid (LKB) was added and the radioactivity was quantified on a LKB (Wallac) 1205 BetaPlate liquid scintillation counter. […]
PROPERTY_MEASURED: log10 Ki (log10 of the value in nM)
Log scale reminder: Ki in nM, then log10 taken.

## Task Report measured log10 Ki; entry is COc1cccc2c1Oc1cc(-c3ccccc3NC(C)=O)ccc1C2C1CCNCC1 (stereo not drawn)
## Result 2.88

## Task Complete the entry with log10 Ki for c1ccc2c(c1)Oc1cc(-c3nnn[nH]3)ccc1C2C1CCNCC1 (stereo not drawn)
## Result 2.89

## Task Provide one value: measured log10 Ki of CC(=O)Nc1ccccc1-c1ccc2c(c1)Oc1ccccc1C2C1CCN(CCc2ccccc2)CC1 (stereo not drawn)
## Result 3.66

State recorded log10 Ki for all listed molecules.
1. CC(=O)Nc1ccccc1-c1ccc2c(c1)Oc1ccccc1C2C1CCNCC1 (stereo not drawn)
2. c1ccc2c(c1)Oc1cc(-c3ccncc3)ccc1C2C1CCNCC1 (stereo not drawn)
3. C=CCN1CCC(C2c3ccccc3Oc3cc(-c4ccccc4NC(C)=O)ccc32)CC1 (stereo not drawn)
4. O=C(c1ccc2c(c1)Oc1ccccc1C2C1CCNCC1)N1CC[C@H](O)C1 (stereo partly drawn)
5. O=C(c1ccc2c(c1)Oc1ccccc1C2C1CCN(Cc2ccoc2)CC1)N1CC[C@H](O)C1 (stereo partly drawn)
6. c1cncc(-c2ccc3c(c2)Oc2ccccc2C3C2CCN(Cc3ccoc3)CC2)c1 (stereo not drawn)
7. O=C(c1ccc2c(c1)Oc1ccccc1C2C1CCN(CCc2ccccc2)CC1)N1CC[C@H](O)C1 (stereo partly drawn)

## Result
1: 3.01; 2: 3.66; 3: 3.04; 4: 2.64; 5: 2.25; 6: 2.48; 7: 3.85

Would you mind listing log10 Ki for each of the following molecules?
1. C=CCN1CCC(C2c3ccccc3Oc3cc(C(=O)N4CC[C@H](O)C4)ccc32)CC1 (stereo partly drawn)
2. CCN(CC)C(=O)c1ccc2c(c1)Oc1ccccc1C2C1CCN(CC2CC2)CC1 (stereo not drawn) [14a]
3. CCN(CC)C(=O)c1ccc2c(c1)Oc1c(OC)cccc1C2C1CCNCC1 (stereo not drawn)

## Result
1. 3.97
2. 3.03
3. 2.44

Give log10 Ki for each of the items listed below.
1. CC(=O)Nc1ccccc1-c1ccc2c(c1)Oc1ccccc1C2C1CCN(Cc2ccccn2)CC1 (stereo not drawn)
2. CCNC(=O)c1ccc2c(c1)Oc1c(O)cccc1C2C1CCNCC1 (stereo not drawn)
3. c1ccc2c(c1)Oc1cc(-c3nnn[nH]3)ccc1C2C1CCN(Cc2ccoc2)CC1 (stereo not drawn)

## Result
1: 2.22; 2: 2.32; 3: 2.70

Hi, could you look up log10 Ki for each item in my list?
1. c1ccc(CCN2CCC(C3c4ccccc4Oc4cc(-c5cccnc5)ccc43)CC2)cc1 (stereo not drawn)
2. COc1cccc2c1Oc1cc(-c3ccncc3)ccc1C2C1CCNCC1 (stereo not drawn)
3. COc1cccc2c1Sc1cc(-c3ccccc3NC(C)=O)ccc1C2C1CCNCC1 (stereo not drawn) [13q]
4. COc1cccc2c1Oc1cc(-c3cccnc3)ccc1C2C1CCNCC1 (stereo not drawn)
5. N#Cc1ccc2c(c1)Oc1c(O)cccc1C2C1CCNCC1 (stereo not drawn)
6. CCN(CC)C(=O)c1ccc2c(c1)Oc1c(Cl)cccc1C2C1CCNCC1 (stereo not drawn)

## Result
[3.48, 2.79, 2.04, 2.50, 2.22, 2.44]

I need log10 Ki for every entry listed below, if you could help.
1. c1cncc(-c2ccc3c(c2)Oc2ccccc2C3C2CCNCC2)c1 (stereo not drawn)
2. C=CCN1CCC(C2c3ccc(-c4ccccc4NC(C)=O)cc3Sc3c(O)cccc32)CC1 (stereo not drawn) [16q]

## Result
2.21
2.08
